// reported protein stability index for each item listed
B1: SLC22A15 (parent)
chain: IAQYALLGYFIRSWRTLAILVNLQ

# Variants of: B1
# protocol_description: protein stability index of a GFP-peptide fusion (GPS, HEK-293T) (PSI 1-6); higher = more stable;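 further: lentivirally expressed fusions sorted by FACS into six bins by GFP to DsRed ratio, PSI derived from sequencing read proportions per bin multiplied by bin number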
# conditions_used: c terminus: a fixed tail appended
Number only, please.

Quick one: protein stability index for I11M ?
2.89
